// provenance: patent US5004747A

- assay.system: rat hepatic microsomal HMG CoA reductase (Rattus norvegicus, UniProt P51639)
- Construct: rat hepatic microsomal HMG CoA reductase; from tissue; host or cells: rat liver microsomes
- measurement.notes: inhibition of rat hepatic microsomal HMG CoA reductase activity in vitro (Table I)
- Type: biochemical
- protocol.conditions: 20.0 micrograms/ml
reported.endpoint: inhibition at 20 µg/mL

Example results:
INSERT INTO assay_data (compound, assay_system, reported_endpoint, readout_value) VALUES
  ('Cc1c(/C=C/[C@@H]2C[C@@H](O)CC(=O)O2)n(-c2ccc(F)cc2)c(=O)c2ccccc12', 'rat hepatic microsomal HMG CoA reductase (Rattus norvegicus, UniProt P51639)', 'inhibition at 20 µg/mL', '85%'),
  ('CC(C)n1c(/C=C/C2CC(O)CC(=O)O2)c(-c2ccc(F)cc2)c2ccccc2c1=O (stereo not shown)', 'rat hepatic microsomal HMG CoA reductase (Rattus norvegicus, UniProt P51639)', 'inhibition at 20 µg/mL', '97%'),
  ('CC(C)n1c(/C=C/C(O)CC(O)CC(=O)O)c(-c2ccc(F)cc2)c2ccccc2c1=O (stereo not shown) [Compound F]', 'rat hepatic microsomal HMG CoA reductase (Rattus norvegicus, UniProt P51639)', 'inhibition at 20 µg/mL', '97%'),
  ('CC(C)c1c(/C=C/[C@@H]2C[C@@H](O)CC(O)O2)n(-c2ccc(F)cc2)c(=O)c2ccccc12 (mixture of isomers)', 'rat hepatic microsomal HMG CoA reductase (Rattus norvegicus, UniProt P51639)', 'inhibition at 20 µg/mL', '72%'),
  ('O=C1C[C@H](O)C[C@@H](/C=C/c2c(-c3ccc(F)cc3)c3ccccc3c(=O)n2CC2CC2)O1', 'rat hepatic microsomal HMG CoA reductase (Rattus norvegicus, UniProt P51639)', 'inhibition at 20 µg/mL', '96%'),
  ('Cc1cc(-n2c(/C=C/[C@@H]3C[C@@H](O)CC(=O)O3)c(C(C)C)c3ccccc3c2=O)ccc1F', 'rat hepatic microsomal HMG CoA reductase (Rattus norvegicus, UniProt P51639)', 'inhibition at 20 µg/mL', '90%');

Prompt line: Dear colleague, I am looking for the recorded inhibition at 20 µg/mL of the following compound: CC(C)n1c(/C=C/C(O)CC(O)CC(=O)O)c(-c2ccc(F)cc2)c2ccccc2c1=O (stereo not shown) [Compound E]
Response line: 94%

----------
- assay.system: rat hepatic microsomal HMG CoA reductase (Rattus norvegicus)
- Construct: rat hepatic microsomal HMG CoA reductase; from tissue; host or cells: rat liver microsomes
- measurement.notes: inhibition of rat hepatic microsomal HMG CoA reductase activity in vitro (Table I)
- Type: biochemical
- protocol.conditions: 2.22 micrograms/ml
reported.endpoint: inhibition at 2.22 µg/mL

Prompt line: So what inhibition at 2.22 µg/mL did COc1ccc(-n2c(/C=C/[C@@H]3C[C@@H](O)CC(=O)O3)c(C(C)C)c3ccccc3c2=O)cc1 get with rat hepatic microsomal HMG CoA reductase (Rattus norvegicus)?
Response line: 59%

Prompt line: So what inhibition at 2.22 µg/mL did CC(C)n1c(/C=C/C(O)CC(O)CC(=O)O)c(-c2ccc(F)cc2)c2ccccc2c1=O (stereo not shown) [Compound F] get with rat hepatic microsomal HMG CoA reductase (Rattus norvegicus)?
Response line: 80%

Prompt line: So what inhibition at 2.22 µg/mL did CC(C)c1c(/C=C/[C@@H]2C[C@@H](O)CC(=O)O2)n(-c2ccc(Cl)cc2)c(=O)c2ccccc12 get with rat hepatic microsomal HMG CoA reductase (Rattus norvegicus)?
Response line: 78%

Prompt line: So what inhibition at 2.22 µg/mL did Cc1c(/C=C/[C@@H]2C[C@@H](O)CC(=O)O2)n(-c2ccc(F)cc2)c(=O)c2ccccc12 get with rat hepatic microsomal HMG CoA reductase (Rattus norvegicus)?
Response line: 40%

Prompt line: So what inhibition at 2.22 µg/mL did CCOC(=O)CC(O)CC(O)/C=C/c1c(-c2ccc(F)cc2)c2ccccc2c(=O)n1C(C)C (stereo not shown) get with rat hepatic microsomal HMG CoA reductase (Rattus norvegicus)?
Response line: 62%

Prompt line: So what inhibition at 2.22 µg/mL did CC(C)c1c(/C=C/[C@@H]2C[C@@H](O)CC(=O)O2)n(-c2ccc(F)cc2)c(=O)c2ccccc12 get with rat hepatic microsomal HMG CoA reductase (Rattus norvegicus)?
Response line: 96%

Prompt line: So what inhibition at 2.22 µg/mL did CC(C)c1c(/C=C/[C@@H]2C[C@@H](O)CC(=O)O2)n(C2CCCCC2)c(=O)c2ccccc12 get with rat hepatic microsomal HMG CoA reductase (Rattus norvegicus)?
Response line: 96%

Prompt line: So what inhibition at 2.22 µg/mL did CC(C)c1c(/C=C/[C@@H]2C[C@@H](O)CC(=O)O2)n(CC2CCCCC2)c(=O)c2ccccc12 get with rat hepatic microsomal HMG CoA reductase (Rattus norvegicus)?
Response line: 41%

Prompt line: So what inhibition at 2.22 µg/mL did CC(C)c1c(/C=C/[C@@H]2C[C@@H](O)CC(O)O2)n(-c2ccc(F)cc2)c(=O)c2ccccc12 (mixture of isomers) get with rat hepatic microsomal HMG CoA reductase (Rattus norvegicus)?
Response line: 44%

Prompt line: So what inhibition at 2.22 µg/mL did CC(C)c1c(CC[C@@H]2C[C@@H](O)CC(=O)O2)n(-c2ccc(F)cc2)c(=O)c2ccccc12 get with rat hepatic microsomal HMG CoA reductase (Rattus norvegicus)?
Response line: 61%

Prompt line: So what inhibition at 2.22 µg/mL did CC(C)n1c(/C=C/C(O)CC(O)CC(=O)O)c(-c2ccc(F)cc2)c2ccccc2c1=O (stereo not shown) [Compound E] get with rat hepatic microsomal HMG CoA reductase (Rattus norvegicus)?
Response line: 61%

Prompt line: So what inhibition at 2.22 µg/mL did COC(=O)C[C@H](O)C[C@H](O)/C=C/c1c(-c2ccc(F)cc2)c2ccccc2c(=O)n1C(C)C get with rat hepatic microsomal HMG CoA reductase (Rattus norvegicus)?
Response line: 92%

Prompt line: So what inhibition at 2.22 µg/mL did CC(C)c1c(/C=C/[C@@H](O)C[C@@H](O)CC(=O)O)n(-c2ccc(F)cc2)c(=O)c2ccccc12 get with rat hepatic microsomal HMG CoA reductase (Rattus norvegicus)?
Response line: 96%

Prompt line: So what inhibition at 2.22 µg/mL did Cc1cc(-n2c(/C=C/[C@@H]3C[C@@H](O)CC(=O)O3)c(C(C)C)c3ccccc3c2=O)ccc1F get with rat hepatic microsomal HMG CoA reductase (Rattus norvegicus)?
Response line: 81%

Prompt line: So what inhibition at 2.22 µg/mL did CC(C)n1c(/C=C/[C@@H]2C[C@@H](O)CC(=O)O2)c(-c2ccc(F)cc2)c2ccccc2c1=O get with rat hepatic microsomal HMG CoA reductase (Rattus norvegicus)?
Response line: 95%

Prompt line: So what inhibition at 2.22 µg/mL did CC(C)n1c(CC[C@@H]2C[C@@H](O)CC(=O)O2)c(-c2ccc(F)cc2)c2ccccc2c1=O get with rat hepatic microsomal HMG CoA reductase (Rattus norvegicus)?
Response line: 81%

----------
- assay.system: rat hepatic microsomal HMG CoA reductase (Rattus norvegicus)
- Construct: rat hepatic microsomal HMG CoA reductase; from tissue; host or cells: rat liver microsomes
- Sequence (P51639 1-887): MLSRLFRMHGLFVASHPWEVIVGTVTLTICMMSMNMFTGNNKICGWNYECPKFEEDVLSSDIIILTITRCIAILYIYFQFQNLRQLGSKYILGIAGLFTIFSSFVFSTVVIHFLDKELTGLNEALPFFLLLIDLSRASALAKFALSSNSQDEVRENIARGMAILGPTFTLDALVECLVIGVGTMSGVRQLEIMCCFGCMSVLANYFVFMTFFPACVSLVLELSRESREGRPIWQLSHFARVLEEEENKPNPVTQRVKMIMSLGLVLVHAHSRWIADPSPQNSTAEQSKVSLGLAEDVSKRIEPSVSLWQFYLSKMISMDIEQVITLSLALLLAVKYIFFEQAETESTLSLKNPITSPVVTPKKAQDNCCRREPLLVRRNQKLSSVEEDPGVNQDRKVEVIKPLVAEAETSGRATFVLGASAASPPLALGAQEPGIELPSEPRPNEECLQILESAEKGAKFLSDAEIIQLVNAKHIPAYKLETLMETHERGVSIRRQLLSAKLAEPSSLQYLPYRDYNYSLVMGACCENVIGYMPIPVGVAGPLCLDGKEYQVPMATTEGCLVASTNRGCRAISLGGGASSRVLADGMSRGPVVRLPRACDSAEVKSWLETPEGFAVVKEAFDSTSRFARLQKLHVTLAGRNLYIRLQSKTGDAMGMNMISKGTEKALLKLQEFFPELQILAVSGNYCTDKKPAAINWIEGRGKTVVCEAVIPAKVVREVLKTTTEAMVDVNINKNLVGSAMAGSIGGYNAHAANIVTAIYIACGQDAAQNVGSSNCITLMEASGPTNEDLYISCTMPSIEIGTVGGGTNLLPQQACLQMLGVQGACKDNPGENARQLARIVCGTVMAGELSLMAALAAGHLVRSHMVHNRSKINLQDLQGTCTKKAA
- measurement.notes: inhibition of rat hepatic microsomal HMG CoA reductase activity in vitro (Table I)
- Format: biochemical
- protocol.conditions: 6.66 micrograms/ml
reported.endpoint: inhibition at 6.66 µg/mL

INSERT INTO results (compound, readout_value) VALUES
  ('Cc1cc(-n2c(/C=C/[C@@H]3C[C@@H](O)CC(=O)O3)c(C(C)C)c3ccccc3c2=O)ccc1F [P]', '90%'),
  ('CC(C)n1c(CC[C@@H]2C[C@@H](O)CC(=O)O2)c(-c2ccc(F)cc2)c2ccccc2c1=O [AI]', '92%');

Prompt line: Dear colleague, I am looking for the recorded inhibition at 6.66 µg/mL of the following compound: CC(C)n1c(/C=C/[C@@H](O)C[C@@H](O)CC(=O)O)c(-c2ccc(F)cc2)c2ccccc2c1=O [AF]
Response line: 95%

Prompt line: Dear colleague, I am looking for the recorded inhibition at 6.66 µg/mL of the following compound: CC(C)c1c(/C=C/[C@@H]2C[C@@H](O)CC(=O)O2)n(C2CCCCC2)c(=O)c2ccccc12 [Z]
Response line: 99%

Prompt line: Dear colleague, I am looking for the recorded inhibition at 6.66 µg/mL of the following compound: CC(C)c1c(/C=C/[C@@H]2C[C@@H](O)CC(=O)O2)n(CC2CCCCC2)c(=O)c2ccccc12 [AB]
Response line: 66%

Prompt line: Dear colleague, I am looking for the recorded inhibition at 6.66 µg/mL of the following compound: Cc1c(/C=C/[C@@H]2C[C@@H](O)CC(=O)O2)n(-c2ccc(F)cc2)c(=O)c2ccccc12 [V]
Response line: 67%

Prompt line: Dear colleague, I am looking for the recorded inhibition at 6.66 µg/mL of the following compound: O=C1C[C@H](O)C[C@@H](/C=C/c2c(-c3ccc(F)cc3)c3ccccc3c(=O)n2CC2CC2)O1 [X]
Response line: 92%

Prompt line: Dear colleague, I am looking for the recorded inhibition at 6.66 µg/mL of the following compound: CCOC(=O)CC(O)CC(O)/C=C/c1c(-c2ccc(F)cc2)c2ccccc2c(=O)n1C(C)C (stereo not shown) [Compound D]
Response line: 85%

Prompt line: Dear colleague, I am looking for the recorded inhibition at 6.66 µg/mL of the following compound: COc1ccc(-n2c(/C=C/[C@@H]3C[C@@H](O)CC(=O)O3)c(C(C)C)c3ccccc3c2=O)cc1 [N]
Response line: 80%

Prompt line: Dear colleague, I am looking for the recorded inhibition at 6.66 µg/mL of the following compound: CC(C)c1c(/C=C/[C@@H]2C[C@@H](O)CC(O)O2)n(-c2ccc(F)cc2)c(=O)c2ccccc12 (mixture of isomers) [Compound M]
Response line: 56%

Prompt line: Dear colleague, I am looking for the recorded inhibition at 6.66 µg/mL of the following compound: CC(C)n1c(/C=C/C2CC(O)CC(=O)O2)c(-c2ccc(F)cc2)c2ccccc2c1=O (stereo not shown) [Compound G]
Response line: 93%

Prompt line: Dear colleague, I am looking for the recorded inhibition at 6.66 µg/mL of the following compound: CC(C)n1c(/C=C/C(O)CC(O)CC(=O)O)c(-c2ccc(F)cc2)c2ccccc2c1=O (stereo not shown) [Compound F]
Response line: 91%
